STUDY TARGET: human serum albumin (HSA) (Homo sapiens, UniProt P02768)
Construct: I (residues 1–195), II (196–383), and III (384–585); purchased Sigma
Sequence (P02768 25-609): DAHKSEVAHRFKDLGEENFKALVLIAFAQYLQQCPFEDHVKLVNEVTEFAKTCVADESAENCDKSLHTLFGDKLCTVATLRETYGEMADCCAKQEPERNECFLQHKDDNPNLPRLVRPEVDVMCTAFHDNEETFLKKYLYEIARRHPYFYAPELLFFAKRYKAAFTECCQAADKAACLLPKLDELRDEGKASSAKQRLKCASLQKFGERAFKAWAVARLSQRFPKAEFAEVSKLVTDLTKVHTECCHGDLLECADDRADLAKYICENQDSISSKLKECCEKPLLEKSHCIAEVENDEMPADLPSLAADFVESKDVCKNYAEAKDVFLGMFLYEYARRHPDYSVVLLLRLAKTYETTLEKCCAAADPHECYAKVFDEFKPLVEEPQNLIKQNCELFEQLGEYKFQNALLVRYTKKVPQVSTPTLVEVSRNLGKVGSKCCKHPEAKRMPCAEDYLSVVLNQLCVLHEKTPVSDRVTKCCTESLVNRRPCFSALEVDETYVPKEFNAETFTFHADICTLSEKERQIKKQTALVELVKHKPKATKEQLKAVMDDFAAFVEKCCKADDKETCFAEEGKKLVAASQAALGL
ASSAY COMMENT: Far-UV circular dichroism of HSA, α-helix content
Assay type: binding
Parameters: unit of the concentration uncertain
SETUP CONDITIONS: compound concentration 100 (unit uncertain); HSA 20 µM; free HSA 67.03
// values below are reported % α-helix of HSA
MEASUREMENT NAME: % α-helix of HSA (%)

[
  {
    "COMPOUND": "[Ag+].[O-][Cl+3]([O-])([O-])[O-].c1ccc2c(c1)[nH]c1cnccc12.c1ccc2c(c1)[nH]c1cnccc12 [Compound 1, [Ag(Hnor)2](ClO4)]",
    "NUMERIC RESULT": 35.63
  },
  {
    "COMPOUND": "CC#N.F[P-](F)(F)(F)(F)F.[Ag+].c1ccc2c(c1)[nH]c1cnccc12.c1ccc2c(c1)[nH]c1cnccc12 [Compound 3, [Ag(Hnor)2(MeCN)](PF6)]",
    "NUMERIC RESULT": 47.18
  },
  {
    "COMPOUND": "F[B-](F)(F)F.[Ag+].c1ccc2c(c1)[nH]c1cnccc12.c1ccc2c(c1)[nH]c1cnccc12 [Compound 4, [Ag(Hnor)2](BF4)]",
    "NUMERIC RESULT": 47.52
  },
  {
    "COMPOUND": "O=[N+]([O-])[O-].[Ag+].c1ccc2c(c1)[nH]c1cnccc12.c1ccc2c(c1)[nH]c1cnccc12 [Compound 2, [Ag(Hnor)2](NO3)]",
    "NUMERIC RESULT": 42.73
  }
]
